Tested on: Rfc1
Protocol summary: Yeast two hybrid (Y2H) analysis of PCNA-partner interaction
Format: binding
Set-up: key: ++: major increase in growth; +: moderate increase in growth; similar growth as the WT PCNA-expressing cells; -: minor decrease in growth; --: moderate decrease in growth; ---: major decrease in growth
Assay conditions: spotting onto selective agar plates; PCNA fused to AD, partner to BD
Measure: Y2H growth relative to WT PCNA-expressing strain: Rfc1

pol30-Rad27E31: PCNA mutant evolved for Rad27, IDCL sequence DGDYDVLKIREL (protein, left off: Gal4 activation domain, end not stated, kept) MLEAKFEEASLFKRIIDGFKDCVQLVNFQCKEDGIIAQAVDDSRVLLVSLEIGVEAFQEYRCDHPVTLGMDLTSLSKILRCGNNTDTLTLIADNTPDSIILLFEDTKKDRIAEYSLKLMDGDYDVLKIRELQYDSTLSLPSSEFSKIVRDLSQLSDSINIMITKETIKFVADGDIGSGSVIIKPFVDMEHPETSIKLEMDQPVDLTFGAKYLLDIIKGSSLSDRVGIRLSSEAPALFQFDLKSGFLQFFLAPKFNDEE | WT
pol30-Rad30E9: PCNA mutant evolved for Rad30, IDCL sequence DNDWDFLKIDEL (protein, left off: Gal4 activation domain, end not stated, kept) MLEAKFEEASLFKRIIDGFKDCVQLVNFQCKEDGIIAQAVDDSRVLLVSLEIGVEAFQEYRCDHPVTLGMDLTSLSKILRCGNNTDTLTLIADNTPDSIILLFEDTKKDRIAEYSLKLMDNDWDFLKIDELQYDSTLSLPSSEFSKIVRDLSQLSDSINIMITKETIKFVADGDIGSGSVIIKPFVDMEHPETSIKLEMDQPVDLTFGAKYLLDIIKGSSLSDRVGIRLSSEAPALFQFDLKSGFLQFFLAPKFNDEE | WT

Cited source for all entries: paper PMC2953525
